Test system: human CTPS1
assay.procedure: RapidFire/MS-based enzyme selectivity assay, human CTPS1
Type: biochemical
experimental.parameters: calculated from the CTPS1 and CTPS2 IC50 values
observation.type: Selectivity (fold selectivity between CTPS1 and CTPS2)

Example cases with answers are listed next.
CCOc1cncc(-c2ccc(NC(=O)C(F)(CC)c3ccnc(NS(=O)(=O)C4CC4)n3)nc2)n1 (single isomer, unassigned) [P114]    +++ (>60 fold (+++))
CCOc1cncc(-c2ccc(NC(=O)Cc3ccnc(NS(=O)(=O)C4CC4)n3)cc2)n1 [P18]    ++ (>30-60 fold (++))
CCOc1cncc(-c2ccc(NC(=O)C(C)(C)c3ccnc(NS(=O)(=O)CC)n3)cc2)n1 [P74]    ++ (>30-60 fold (++))
CCOc1cncc(-c2ccc(NC(=O)C(CC)c3cncc(NS(=O)(=O)C4CC4)n3)nc2)n1 (centres unmarked) [P201]    +++ (>60 fold (+++))
CCOc1cncc(-c2ccc(NC(=O)C(C)(OC)c3cncc(NS(=O)(=O)C4CC4)n3)nc2)n1 (single isomer, unassigned) [P205a]    +++ (>60 fold (+++))

Provide each entry's Selectivity (fold selectivity between CTPS1 and CTPS2) from the list below.
1. CC(C)Oc1cncc(-c2ccc(NC(=O)Cc3ccnc(NS(=O)(=O)C4CC4)n3)c(F)c2)n1 [P12]
2. CCOc1cncc(-c2ccc(NC(=O)C(F)(CC)c3cncc(NS(=O)(=O)C4CC4)n3)nc2)n1 (centres unmarked) [P200]
3. CCOc1cncc(-c2ccc(NC(=O)C3(c4ccnc(NS(=O)(=O)C5CC5)n4)CCCC3)nc2)n1 [P136]

Response:
++ (>30-60 fold (++))
++ (>30-60 fold (++))
+++ (>60 fold (+++))

----------
Test system: human CTPS1
assay.procedure: RapidFire/MS-based enzyme selectivity assay, human CTPS1
Assay type: biochemical
experimental.parameters: calculated from the CTPS1 and CTPS2 IC50 values
observation.type: Selectivity (fold selectivity between CTPS1 and CTPS2)

Some compounds with known Selectivity (fold selectivity between CTPS1 and CTPS2) results, for comparison:
CCOc1cncc(-c2ccc(NC(=O)C(C)(OC)c3cncc(NS(=O)(=O)C4CC4)n3)nc2)n1 (single isomer, unassigned) [P205b]    ++ (>30-60 fold (++))
CC(C)Oc1cncc(-c2ccc(NC(=O)C(C)(C)c3ccnc(NS(=O)(=O)C4CC4)n3)c(F)c2)n1    + (2-30 fold (+))
CC(C)Oc1cncc(-c2ccc(C(=O)NC(C)(C)c3cncc(NS(=O)(=O)C4CC4)n3)c(F)c2)n1    + (2-30 fold (+))
CC(C)(NC(=O)c1ccc(-c2cncc(C(F)(F)F)n2)cc1)c1cncc(NS(=O)(=O)C2CC2)n1    + (2-30 fold (+))
O=C(Cc1ccnc(NS(=O)(=O)C2CC2)n1)Nc1ccc(-c2cccnc2)cc1    ++ (>30-60 fold (++))

For each entry beneath this line, provide reported Selectivity (fold selectivity between CTPS1 and CTPS2).
1. CCOc1cncc(-c2ccc(NC(=O)C3(c4ccnc(NS(=O)(=O)C5CC5)n4)CC3)cc2)n1
2. CCOc1cncc(-c2ccc(NC(=O)C(C)(C)c3cncc(NS(=O)(=O)C4CC4)n3)nc2)n1
3. CCOc1cncc(-c2ccc(NC(=O)C3(c4ccnc(NS(=O)(=O)C5CC5)n4)CCCC3)cc2)n1 [P2]

Response:
1: +++ (>60 fold (+++)); 2: +++ (>60 fold (+++)); 3: +++ (>60 fold (+++))

----------
Tested on: human CTPS1
assay.procedure: RapidFire/MS-based enzyme selectivity assay, human CTPS1
Format: biochemical
experimental.parameters: calculated from the CTPS1 and CTPS2 IC50 values
Description: The enzyme inhibitory activities against each target isoform of interest may be determined for the compounds of the invention using an optimised RapidFire high-throughput mass spectrometry (RF/MS) assay format. […] Human CTPS (1 or 2) protein may be prepared in lx assay buffer to the final working protein concentration required for the reaction. […] Each mixture may be incubated for an appropriate amount of time per isoform within the determined linear phase of the reaction at 25° C. […]
observation.type: Selectivity (fold selectivity between CTPS1 and CTPS2)

Answered examples (5):
CCC(C(=O)Nc1ccc(-c2cncc(C(F)(F)F)n2)cn1)c1ccnc(NS(=O)(=O)C2CC2)n1 (stereo not shown)    ++ (>30-60 fold (++))
CCOc1cncc(-c2ccc(NC(=O)C(C)(C)c3nc(NS(=O)(=O)C4CC4)ncc3F)cc2)n1    ++ (>30-60 fold (++))
CCOc1cncc(-c2ccc(NC(=O)C(F)(CC)c3ccnc(NS(=O)(=O)C4CC4)n3)nc2)n1 (single isomer, unassigned) [P113]    + (2-30 fold (+))
CCOc1cncc(-c2ccc(NC(=O)C(C)(C)c3ccnc(NS(C)(=O)=O)n3)nc2)n1    ++ (>30-60 fold (++))
CCOc1cncc(-c2ccc(NC(=O)C(F)(CC)c3ccnc(NS(=O)(=O)C4CC4)n3)nc2)n1 (racemic) [P112]    ++ (>30-60 fold (++))

Parameter requested: Selectivity (fold selectivity between CTPS1 and CTPS2). Apply to each item below.
1. CCOc1cncc(-c2ccc(NC(=O)C(CCOC)c3ccnc(NS(=O)(=O)C4CC4)n3)nc2)n1 (stereo not shown)
2. CCOc1cncc(-c2ccc(NC(=O)C3(c4ccnc(NS(=O)(=O)C5CC5)n4)CCOCC3)nc2)n1
3. CCOc1cncc(-c2ccc(NC(=O)C(CC)c3ccnc(NS(=O)(=O)C4CC4)n3)nc2)n1 (stereo not shown)
4. CCOc1cncc(-c2ccc(NC(=O)C(CC)c3cccc(NS(=O)(=O)C4CC4)n3)nc2)n1 (stereo not shown)
5. CCC(C(=O)Nc1ccc(-c2cncc(OC(C)C)n2)cn1)c1ccnc(NS(=O)(=O)C2CC2)n1 (stereo not shown)
6. CCOc1cncc(-c2ccc(NC(=O)C(F)(CC)c3cncc(NS(=O)(=O)C4CC4)n3)nc2)n1 (single isomer, unassigned) [P206]
7. CCC(C(=O)Nc1ccc(-c2cncc(Cl)c2)cc1)c1ccnc(NS(=O)(=O)C2CC2)n1 (stereo not shown) [P1]
8. CC(C)(C(=O)Nc1ccc(-c2cncc(C3CC3)n2)cn1)c1ccnc(NS(=O)(=O)C2CC2)n1

Response:
["+++ (>60 fold (+++))", "+++ (>60 fold (+++))", "+++ (>60 fold (+++))", "++ (>30-60 fold (++))", "+++ (>60 fold (+++))", "+++ (>60 fold (+++))", "+ (2-30 fold (+))", "++ (>30-60 fold (++))"]

Okay, here is my list. What is Selectivity (fold selectivity between CTPS1 and CTPS2) for each of these?
1. CCOc1cncc(-c2ccc(NC(=O)C3(c4cncc(NS(=O)(=O)C5CC5)n4)CCOCC3)nc2)n1
2. CCC(C(=O)Nc1ccc(-c2cncc(C(F)(F)F)n2)cc1)c1ccnc(NS(=O)(=O)C2CC2)n1 (stereo not shown)
3. CCOc1cncc(-c2ccc(NC(=O)C(CC)c3cncc(NS(=O)(=O)C4CC4)n3)cc2)n1 (stereo not shown)

Response:
["+++ (>60 fold (+++))", "+ (2-30 fold (+))", "+++ (>60 fold (+++))"]

----------
subject.of.test: human CTPS1 (Homo sapiens, UniProt P17812)
Construct: purchased Proteros biostructures GmbH
Sequence (P17812 whole entry): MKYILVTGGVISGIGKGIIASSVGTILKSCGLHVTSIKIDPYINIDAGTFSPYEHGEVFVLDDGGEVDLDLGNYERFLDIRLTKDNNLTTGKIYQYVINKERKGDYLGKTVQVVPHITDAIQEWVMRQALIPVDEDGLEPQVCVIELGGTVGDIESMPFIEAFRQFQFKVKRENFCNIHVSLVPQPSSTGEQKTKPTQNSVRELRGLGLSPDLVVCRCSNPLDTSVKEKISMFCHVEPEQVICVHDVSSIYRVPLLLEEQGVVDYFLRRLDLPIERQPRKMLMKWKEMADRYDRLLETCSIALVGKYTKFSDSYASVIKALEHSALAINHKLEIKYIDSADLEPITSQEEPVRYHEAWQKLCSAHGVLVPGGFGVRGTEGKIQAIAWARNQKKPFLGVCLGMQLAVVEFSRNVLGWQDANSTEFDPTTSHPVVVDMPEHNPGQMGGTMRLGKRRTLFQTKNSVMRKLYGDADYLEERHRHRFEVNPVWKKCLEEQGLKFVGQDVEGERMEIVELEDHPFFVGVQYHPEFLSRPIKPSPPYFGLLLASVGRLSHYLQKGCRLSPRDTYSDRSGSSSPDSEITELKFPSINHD
assay.procedure: Human CTPS1 enzyme inhibition (ADP-Glo Max assay)
Assay type: biochemical
experimental.parameters: human full length CTPS1, 25° C., read-out: CTPS1 (Human CTPS1 Enzyme Inhibition, IC50 grouped by potency range)
pIC50: −log10 of the molar value.
For each of the compounds below, state its pIC50.

Worked examples follow.
CCOc1cncc(-c2ccc(C(=O)NC(CC)c3cncc(NS(=O)(=O)C4CC4)n3)c(F)c2)n1 (stereo not shown) [P223]    6.00 to 7.00
CCOc1cncc(-c2ccc(NC(=O)C(F)(CC)c3cncc(NS(=O)(=O)C4CC4)n3)nc2)n1 (single isomer, unassigned) [P207]    ≥ 7.00
CCC(C(=O)Nc1ccc(-c2cncc(C(F)(F)F)n2)cn1)c1cccc(NS(=O)(=O)C2CC2)n1 (stereo not shown)    6.00 to 7.00
CCOc1cncc(-c2ccc(NC(=O)C(F)(CC)c3ccnc(NS(=O)(=O)C4CC4)n3)nc2)n1 (single isomer, unassigned) [P114]    ≥ 7.00
CCC(C(=O)Nc1ccc(-c2cncc(Cl)c2)cc1F)c1ccnc(NS(=O)(=O)C2CC2)n1 (stereo not shown)    6.00 to 7.00

For each of the compounds below, state pIC50.
1. CCOc1cncc(-c2ccc(NC(=O)C(CC)c3cncc(NS(=O)(=O)C4CC4)n3)cc2)n1 (stereo not shown)
2. CCC(C(=O)Nc1ccc(-c2cccnc2)cc1)c1ccnc(NS(=O)(=O)C2CC2)n1 (stereo not shown)
3. CCC(NC(=O)c1ccc(-c2cncc(C(F)(F)F)c2)cc1)c1ccnc(NS(=O)(=O)C2CC2)n1 (stereo not shown)

Response:
1: ≥ 7.00; 2: 6.00 to 7.00; 3: 6.00 to 7.00
